test system: BDF1 mice, P388 leukemia ip, median survival T/C; experiment: NCI In Vivo Anticancer Drug Screen. Data for tumor model P388 Leukemia (intraperitoneal) in B6D2F1 (BDF1) mice; settings: endpoint: median survival time; dose: 12.5 mg/kg/injection; schedule: Q01DX009 (ip); vehicle: saline with Tween-80
Toxic doses and inconclusive results are not listed. The calls were made as follows: active = survival T/C of 150% or more; inactive = T/C below 125% in these data.
Classes to choose from: TRUE for active, FALSE for inactive

The examples below pair each entry with its known result.
Exercise: Hello, I am checking results. What call was entered for NC(CSC(c1ccccc1)(c1ccccc1)c1ccc(Br)cc1)C(=O)O (stereo not given) ?
Key: TRUE

Exercise: Hello, I am checking results. What call was entered for Cc1ccc(S(=O)(=O)/C=C(/I)c2ccccc2)cc1 ?
Key: FALSE

Exercise: Hello, I am checking results. What call was entered for O=[N+]([O-])c1cccc2c1ccc[n+]2Cc1ccccc1 ?
Key: FALSE

Exercise: Hello, I am checking results. What call was entered for Cc1ccc(CBr)c2ccccc12 ?
Key: FALSE

Exercise: Hello, I am checking results. What call was entered for COc1c(C)c2c3c4c1C(=O)C(=CC4=O)NC(=O)/C(C)=C\C=C\C(C)C1OC(C)(C)OC(C1C)C(C)C(OC(C)=O)C(C)C(OC)/C=C/OC(C)(O2)C3=O (stereo not given) ?
Key: FALSE

***
Exercise: Hello, I am checking results. What call was entered for Cc1cc2nc(Oc3ccccc3)nc(=O)n2c(C)n1 ?
Key: FALSE

Exercise: Hello, I am checking results. What call was entered for [NH-]C(CCC(N)=O)C(=O)O.[NH-]C(CCC(N)=O)C(=O)O.[Zn+2] (stereo not given) ?
Key: FALSE

Exercise: Hello, I am checking results. What call was entered for O=C1CCS(=O)(=O)c2ccccc21 ?
Key: FALSE

Exercise: Hello, I am checking results. What call was entered for C[C@]12CC[C@H](O)C[C@@H]1CC[C@@H]1[C@@H]2C(=O)C[C@@]2(C)[C@H]1CC[C@]2(O)C(=O)CBr ?
Key: FALSE

Exercise: Hello, I am checking results. What call was entered for Cc1ccc2c(c1)=N/C(=N/c1[nH]c(O)c3ccccc13)N=2 ?
Key: FALSE

* * *

Provide the reported T/C of each item.
tested on: BDF1 mice, P388 leukemia ip, median survival T/C; test: NCI In Vivo Anticancer Drug Screen. Data for tumor model P388 Leukemia (intraperitoneal) in B6D2F1 (BDF1) mice; settings: endpoint: median survival time; dose: 75.0 mg/kg/injection; schedule: Q01DX009 (ip); vehicle: Klucel (hydroxypropylcellulose) (HPC); higher = longer survival
Inconclusive results and toxic doses are left out.

Bench note, BDF1 mice, P388 leukemia ip, median survival T/C: entry CCOc1cccc(OCC)c1C , its T/C = 100 % of control

Bench note, BDF1 mice, P388 leukemia ip, median survival T/C: entry O=c1[nH]c(=O)[nH]c(=O)[nH]1 , its T/C = 120 % of control

Bench note, BDF1 mice, P388 leukemia ip, median survival T/C: entry C1SCSCS1 , its T/C = 118 % of control

Bench note, BDF1 mice, P388 leukemia ip, median survival T/C: entry COc1ccc(N2c3ccccc3-c3cc[nH]c(=O)c3[C@H]2O)cc1OC , its T/C = 106 % of control

Bench note, BDF1 mice, P388 leukemia ip, median survival T/C: entry COc1cc2c(cc1OC)-c1cc3cc(OC)c(OC)cc3c(CCC(=O)O)[n+]1CC2 , its T/C = 101 % of control

With those in mind, consider the next molecule.
Bench note, BDF1 mice, P388 leukemia ip, median survival T/C: entry NC(CSC(c1ccccc1)(c1ccccc1)c1ccc(F)cc1)C(=O)O (stereo unspecified) , its T/C = 90 % of control

* * *

Provide the reported T/C of each item.
test system: BDF1 mice, P388 leukemia ip, median survival T/C; experiment: NCI In Vivo Anticancer Drug Screen. Data for tumor model P388 Leukemia (intraperitoneal) in B6D2F1 (BDF1) mice; conditions: endpoint: median survival time; dose: 25.0 mg/kg/injection; schedule: Q01DX009 (ip); vehicle: saline with Tween-80; higher = longer survival
Toxic doses and inconclusive results are not listed.

// below: answered compounds
Bench note, BDF1 mice, P388 leukemia ip, median survival T/C: entry Cc1nc2ccccc2nc1CBr , its T/C = 122 % of control

Bench note, BDF1 mice, P388 leukemia ip, median survival T/C: entry CC(C)N(C(C)C)S(=O)(=O)c1ccccc1C(O)(c1ccccc1)c1ccccc1 , its T/C = 90 % of control

Bench note, BDF1 mice, P388 leukemia ip, median survival T/C: entry O=C(Nc1ccc(Cl)c(Cl)c1)Nc1cc(Cl)ccc1Sc1ccc(Cl)cc1S(=O)(=O)O , its T/C = 109 % of control

Bench note, BDF1 mice, P388 leukemia ip, median survival T/C: entry CNC(=S)N/N=C(\C)c1snc(C)c1Br , its T/C = 94 % of control

Bench note, BDF1 mice, P388 leukemia ip, median survival T/C: entry CCCCCC1=NC(C)(C(=O)OC)OO1 (stereo not given) , its T/C = 114 % of control

Would you mind giving T/C for every compound in the list below?
1. C/C(=N\N)c1ccc(Cl)cc1
2. COC1C(O)CC(=O)OC(C)C/C=C/C=C/C(OC2CCC(N(C)C)C(C)O2)C(C)CC(CC=O)C1OC1OC(C)C(OC2CC(C)(O)C(O)C(C)O2)C(N(C)C)C1O (stereo not given)
3. CCOc1c(Cl)cc(Cl)cc1C(c1ccc(Cl)cc1S(=O)(=O)O)c1cc(Cl)cc(Cl)c1OCC
4. O=C1C=C2SCCN2C(=O)C1
5. CCOC(=O)c1c(N)[nH]c(SSc2[nH]c(N)c(C(=O)OCC)c2C(=O)OCC)c1C(=O)OCC

Key:
1. 95 % of control
2. 100 % of control
3. 108 % of control
4. 99 % of control
5. 92 % of control

* * *

system: BDF1 mice, P388 leukemia ip, median survival T/C; assay: NCI In Vivo Anticancer Drug Screen. Data for tumor model P388 Leukemia (intraperitoneal) in B6D2F1 (BDF1) mice; settings: endpoint: median survival time; dose: 50.0 mg/kg/injection; schedule: Q01DX001 (ip); vehicle: saline with Tween-80; higher = longer survival
Toxic doses and inconclusive results are not listed.
Provide the reported T/C of each item.

Would you mind giving T/C for every compound in the list below?
1. CC1CC2OC(=O)C3=C2C(CCC3)C12CC(c1ccoc1)OC2=O (stereo not given)
2. CC(C)C1=CC23CCC4C(C)(C(N)=O)CCCC4(C)C2CC1C1C(=O)OC(=O)C13 (stereo not given)
3. Cn1c(=O)c2nc(-c3ccc(Cl)c(Cl)c3)c(-c3ccc(Cl)c(Cl)c3)nc2n(C)c1=O
4. Cn1c(=O)n(C)c2ccccc21
5. O=S(=O)(/N=C1C=C/C(=N\S(=O)(=O)c2ccccc2)C(Sc2ccccc2)=C\1)c1ccccc1

Key:
106 % of control
104 % of control
107 % of control
104 % of control
104 % of control

* * *

system: BDF1 mice, P388 leukemia ip, median survival T/C; assay: NCI In Vivo Anticancer Drug Screen. Data for tumor model P388 Leukemia (intraperitoneal) in B6D2F1 (BDF1) mice; conditions: endpoint: median survival time; dose: 12.5 mg/kg/injection; schedule: Q01DX009 (ip); vehicle: other
Inconclusive results and toxic doses are left out. Rule for the calls: active = survival T/C of 150% or more; inactive = T/C below 125% in these data.
Classes to choose from: active, inactive

Exercise: Hello, I am checking results. What call was entered for Cc1cc(C)c(-c2cc(O)c(C)cc2O)c(C)c1 ?
Key: inactive

Exercise: Hello, I am checking results. What call was entered for CCOC(=O)CC/[N+]([O-])=C/c1ccccc1 ?
Key: inactive

Exercise: Hello, I am checking results. What call was entered for O=C(C=C(C(F)(F)F)C(F)(F)F)c1ccc(Br)cc1 ?
Key: inactive

Exercise: Hello, I am checking results. What call was entered for CC(C)NC(=O)OCc1c(COC(=O)NC(C)C)c(-c2ccc(Cl)c(Cl)c2)n2c1CCC2 ?
Key: active

* * *

Provide the reported T/C of each item.
tested on: BDF1 mice, P388 leukemia ip, median survival T/C; assay: NCI In Vivo Anticancer Drug Screen. Data for tumor model P388 Leukemia (intraperitoneal) in B6D2F1 (BDF1) mice; conditions: endpoint: median survival time; dose: 200.0 mg/kg/injection; schedule: Q01DX009 (ip); vehicle: saline; higher = longer survival
Inconclusive results and toxic doses are left out.

Would you mind giving T/C for every compound in the list below?
1. COc1cccc(/C=C/[N+](=O)[O-])c1OC
2. COc1ccc(C=NCCc2ccc(OC)c(OC)c2)cc1OC
3. O=c1[nH]cnc2c1ncn2C1OC(CO)C(O)C1O (stereo unspecified)
4. CCN(CC)CCCC(C)NCCCN (stereo unspecified)

Key:
1: 91 % of control; 2: 97 % of control; 3: 100 % of control; 4: 94 % of control

Every entry's value here was drawn from PubChem BioAssay AID328.
